The values you see were collected from ChEMBL document CHEMBL3785033.

Molecular target: Bromodomain-containing protein 4 (Homo sapiens, UniProt O60885)
Experiment: Displacement of biotinylated tetra-acetylated histone H4 from human his-tagged BRD4 bromodomain1 (57 to 168 residues) incubated for 1 hr by TR-FRET assay
pIC50: −log10 of the molar value.

RECORD_SMILES: CCS(=O)(=O)c1ccc(OC2CCCCC2)c(-c2cn(C)c(=O)c3[nH]c(-c4cnn(C5CCNCC5)c4)cc23)c1
MEASURED_TARGET: Bromodomain-containing protein 4 (Homo sapiens, UniProt O60885)
pIC50: 8.52
